# target of assay: beta-klotho
# method: cell-based or functional assay
readout kind: EC50, ELK-luciferase assay (nM)
State the answer as a number, implicitly in nM.

Use these answered entries as a reference point.
{"binder": "FGF21 mutant R77C, P171G, PEGylated at the N-terminus and Cys 77 (2 x 20k) (ligand, 20 kDa PEG on the N-terminus; 20 kDa PEG on Cys 77) MHPIPDSSPLLQFGGQVRQRYLYTDDAQQTEAHLEIREDGTVGGAADQSPESLLQLKALKPGVIQILGVKTSRFLCQCPDGALYGSLHFDPEACSFRELLLEDGYNVYQSEAHGLPLHLPGNKSPHRDPAPRGPARFLPLPGLPPAPPEPPGILAPQPPDVGSSDPLSMVGGSQGRSPSYAS", "result unit": "nM", "EC50, ELK-luciferase assay": 64}
{"binder": "FGF21 mutant H125C, P171G, PEGylated at the N-terminus and Cys 125 (2 x 20k) (ligand, 20 kDa PEG on the N-terminus; 20 kDa PEG on Cys 125) MHPIPDSSPLLQFGGQVRQRYLYTDDAQQTEAHLEIREDGTVGGAADQSPESLLQLKALKPGVIQILGVKTSRFLCQRPDGALYGSLHFDPEACSFRELLLEDGYNVYQSEAHGLPLHLPGNKSPCRDPAPRGPARFLPLPGLPPAPPEPPGILAPQPPDVGSSDPLSMVGGSQGRSPSYAS", "result unit": "nM", "EC50, ELK-luciferase assay": 152}
{"binder": "FGF21 mutant H125C, P171G, PEGylated at the N-terminus (10k) and Cys 125 (20k) (ligand, 10 kDa PEG on the N-terminus; 20 kDa PEG on Cys 125) MHPIPDSSPLLQFGGQVRQRYLYTDDAQQTEAHLEIREDGTVGGAADQSPESLLQLKALKPGVIQILGVKTSRFLCQRPDGALYGSLHFDPEACSFRELLLEDGYNVYQSEAHGLPLHLPGNKSPCRDPAPRGPARFLPLPGLPPAPPEPPGILAPQPPDVGSSDPLSMVGGSQGRSPSYAS", "result unit": "nM", "EC50, ELK-luciferase assay": 65}

Next binder, EC50, ELK-luciferase assay to be filled in.
# input binder: FGF21 mutant H125C, P171G, PEGylated at the N-terminus (5k) and Cys 125 (20k) (ligand, 5 kDa PEG on the N-terminus; 20 kDa PEG on Cys 125) MHPIPDSSPLLQFGGQVRQRYLYTDDAQQTEAHLEIREDGTVGGAADQSPESLLQLKALKPGVIQILGVKTSRFLCQRPDGALYGSLHFDPEACSFRELLLEDGYNVYQSEAHGLPLHLPGNKSPCRDPAPRGPARFLPLPGLPPAPPEPPGILAPQPPDVGSSDPLSMVGGSQGRSPSYAS ; wanted: its EC50, ELK-luciferase assay
30
